The reported measurements were obtained from patent US11000512B2.

Quick reference: LogS of the listed items.
measurement-protocol: Water Solubility Assay
Assay type: physicochemical
test-parameters: from aqueous solubility

{"compound": "CC(C)CCc1cn(-c2ccc(NC(=O)Nc3ccccc3C(F)(F)F)cc2)nn1 [Compound 22b]", "observed-measurement": "<−8.6"}
{"compound": "CCCCn1nnc(-c2ccc(NC(=O)Nc3ccccc3C)cc2)n1", "observed-measurement": "<−8.5"}
{"compound": "Cc1ccccc1NC(=O)Nc1ccc(-n2cc(CCC(C)C)nn2)cc1 [Compound 20b]", "observed-measurement": "<−8.6"}

# context switch: different compound, same LogS
Q. Quick one: LogS for Cc1c(Cl)cccc1NC(=O)Nc1ccc(-n2cc(CCC(C)C)nn2)cc1 [Compound 21b] ?
A. <−8.6

---

Test system: Human adenocarcinomic alveolar basal epithelial cell line (A549)
measurement-protocol: Cytotoxicity test / growth inhibition, A549
Type: cell-based
test-parameters: A549, 48 hours, cell counting
reported-property: pIC50
pIC50 is defined as minus the log10 of a concentration measured in mol/L.

Please review the following examples before continuing.
{"compound": "CCCCc1nc(-c2ccc(NC(=O)Nc3ccccc3C(F)(F)F)cc2)no1", "test-system": "Human adenocarcinomic alveolar basal epithelial cell line (A549)", "observed-measurement": 4.49}
{"compound": "CCCC(C)C(F)c1cn(-c2ccc(NC(=O)Nc3ccccc3C(F)(F)F)cc2)nn1 (stereo not drawn) [Compound 42c]", "test-system": "Human adenocarcinomic alveolar basal epithelial cell line (A549)", "observed-measurement": 4.24}
{"compound": "CCCCc1cn(-c2cccc(S(=O)(=O)Nc3ccccc3C(F)(F)F)c2)nn1 [Compound 64d]", "test-system": "Human adenocarcinomic alveolar basal epithelial cell line (A549)", "observed-measurement": 4.67}
{"compound": "CCCCc1nnc(-c2ccc(NC(=O)Nc3ccccc3C(F)(F)F)cc2)o1", "test-system": "Human adenocarcinomic alveolar basal epithelial cell line (A549)", "observed-measurement": 4.24}
{"compound": "CCCCc1nnc(-c2ccc(NC(=O)Nc3ccccc3C(F)(F)F)cc2)[nH]1", "test-system": "Human adenocarcinomic alveolar basal epithelial cell line (A549)", "observed-measurement": 4.85}

Q. Query pIC50 on Human adenocarcinomic alveolar basal epithelial cell line (A549) for CCCCc1cn(-c2ccc(NC(=O)Nc3ccccc3C(F)(F)F)cc2)nn1 [Compound 22a]
A. 5.85

---

Test system: Human osteosarcoma cell line (U2OS)
measurement-protocol: Cytotoxicity test / growth inhibition, U2OS
Format: cell-based
test-parameters: 48 hours, cell counting
reported-property: pIC50
In simple prose, pIC50 is minus the logarithm base ten of a concentration in moles per litre.

Study these solved cases before continuing.
{"compound": "CCCCc1nnc(-c2ccc(NC(=O)Nc3ccccc3C(F)(F)F)cc2)s1 [Compound 124]", "pIC50": 4.22}
{"compound": "CCCCc1cn(-c2ccc(NC(=O)Nc3ccccc3C(F)(F)F)cc2)nn1 [Compound 22a]", "pIC50": 5.38}
{"compound": "CCCC(C)C(F)c1cn(-c2ccc(NC(=O)Nc3ccccc3C(F)(F)F)cc2)nn1 (centres unmarked) [Compound 42c]", "pIC50": 4.65}
{"compound": "CCCCc1nc(-c2ccc(NC(=O)Nc3ccccc3C(F)(F)F)cc2)no1 [Compound 106]", "pIC50": 4.45}

With those in mind, consider the next compound.
Q. For CCCCn1nnc(-c2ccc(NC(=O)Nc3ccccc3C(F)(F)F)cc2)n1 [Compound 51] , what is its reported pIC50?
A. 4.29
